Items are presented alongside their recorded melting point.

Incoming: So what does the record say about melting point for "O=[N+]([O-])c1ccc2c(c1)C(c1ccccc1)=NCc1nc(CO)cn1-2" ?
Outgoing: 250 to 251 °C

Incoming: So what does the record say about melting point for "COC(=O)c1nc(Br)cc(Br)c1O" ?
Outgoing: 181 to 183 °C

Incoming: So what does the record say about melting point for "Cc1ccc2c(c1)c(C1=C(Br)C(=O)N(C)C1=O)cn2C" ?
Outgoing: 107 to 110 °C

Incoming: So what does the record say about melting point for CC(C)C(NC(=O)OCc1ccccc1)C(=O)NC(Cc1ccccc1)C(O)C(O)C(Cc1ccccc1)NC(=O)C(NC(=O)OCc1ccccc1)C(C)C (centres undefined) ?
Outgoing: 231 to 232 °C

---

Items are presented alongside their recorded melting point.

Here is how some compounds turned out for melting point.
# compound, observation-type, result
records = [
    ("O=C(NCCc1ccccc1)c1ccc(S(=O)(=O)NC(=O)c2ccc(C(=O)NCCO)nc2)cc1", "melting point", "228 to 230 °C"),
    ("O=CCCc1c[nH]c2ccc(F)cc12", "melting point", "79 to 80 °C"),
    ("CCCCOc1ccc(S(=O)(=O)C2(C(=O)NO)CCN(Cc3ccc(F)cc3)CC2)cc1", "melting point", "112 °C"),
    ("O=C(c1ccccn1)c1cc2ccncc2[nH]1", "melting point", "219 to 222 °C"),
    ("CC(=O)c1cccc(-c2ncccc2OC2SCC(O)C(O)C2O)c1 (stereo not given)", "melting point", "128 to 133 °C"),
    ("COc1cc(C)c(C2=C(C)CN(O)C=C2C)c(C)c1", "melting point", "194 to 195 °C"),
    ("CN1CCC(c2c[nH]c3ccc(NS(=O)(=O)c4cccc5ccccc45)cc23)CC1", "melting point", "254 to 256 °C"),
    ("Cc1nc2c3c(c(C(=O)NCCCO)cc2n1C)CCC1(Cc2ccccc2C1)N3", "melting point", "237 to 238 °C"),
    ("CC(C)N(c1nc(Cl)nc(N2C(C)(C)CC3(CC2(C)C)OCCO3)n1)C(C)C", "melting point", "179 to 184 °C"),
]

Query compound follows.
Incoming: So what does the record say about melting point for "Cn1cc(C(=O)C(Cl)Cl)c(=O)c(-c2cccc(F)c2)c1" ?
Outgoing: 183 to 184 °C

---

observation-type: melting point

# compound, melting point
measured = [
    ("CNc1cc(C(F)(F)F)no1", "48.5 to 50 °C"),
]

Incoming: So what does the record say about melting point for "O=C(Nc1ccccc1)N1CCc2ccccc2C1" ?
Outgoing: 145 to 146 °C

Incoming: So what does the record say about melting point for "COc1ccc(N2CCCn3c2nc2c(Cl)ccc(C(O)(C4CC4)C4CC4)c23)c(C)n1" ?
Outgoing: 208 to 210 °C

Incoming: So what does the record say about melting point for "CC(C)c1cccc(C(C)C)c1NC(=O)CN1CCN(CCSc2nc3ccccc3o2)CC1" ?
Outgoing: 161 to 163 °C

Incoming: So what does the record say about melting point for "CCCc1nc2c(N)nc3cc(OCCCNC(=O)NS(=O)(=O)c4ccc(F)cc4)ccc3c2n1CC(C)C" ?
Outgoing: 194 to 198 °C

Incoming: So what does the record say about melting point for CCOC(=O)C1=C(N)N=C(OCC)C(C(=O)OCC)C1c1ccco1 (stereo unspecified) ?
Outgoing: 110 °C

Reference source for all entries: a melting point compilation (Tetko et al.; mined from patent text by program, amines drawn as free bases though some values may be those of a salt)
